target: T1, soluble human FcRn (shFcRn) (human, UniProt P55899 24-297; P61769 21-119); experiment: IgG competition ELISA
T1 construct: Biotinylated for the ELISA, amine-coupled to a CM5 chip for SPR; also called biotinylated shFcRn
T1 sequence (P55899 24-297 limits assumed, chain 1 of 2): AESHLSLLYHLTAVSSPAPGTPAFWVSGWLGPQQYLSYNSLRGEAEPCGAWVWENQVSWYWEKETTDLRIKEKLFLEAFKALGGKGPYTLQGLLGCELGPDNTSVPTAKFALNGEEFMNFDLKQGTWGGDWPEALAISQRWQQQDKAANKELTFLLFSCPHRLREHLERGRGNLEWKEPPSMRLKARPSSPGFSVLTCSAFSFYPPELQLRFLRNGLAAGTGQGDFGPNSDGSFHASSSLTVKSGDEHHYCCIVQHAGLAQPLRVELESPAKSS
T1 sequence (P61769 21-119 limits assumed, chain 2 of 2): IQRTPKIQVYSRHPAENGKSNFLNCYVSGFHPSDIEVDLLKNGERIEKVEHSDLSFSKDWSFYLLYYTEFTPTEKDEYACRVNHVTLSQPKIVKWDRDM
pIC50: −log10 of the molar value. Bridge positions count the residues as written; N and C are the ends. Square brackets hold non-standard residues; d marks the D form. Ends that are not written are not given here. NMeL = CN[C@@H](CC(C)C)C(=O)O; Pen = CC(C)(S)[C@H](N)C(=O)O; Sar = CNCC(=O)O

{"columns": ["Binder", "pIC50"],
 "data": [
  ["RFCTGHFGGLYPC (Pen 3; Sar 9; NMeLeu 10; disulfide 3-13 within each chain; C-termini joined through the two amino groups of a branching Lys, C-terminally linked dimer; drawing CHEM-US-00124) [Peptide No. 280]", 7.60],
  ["RF[Pen]TGHFG[Sar][NMeL]YPC-NH2 (disulfide 3-13; also: dimer: N-termini joined by Bis-dPEG6 diacid linker, N-terminally linked dimer; drawing CHEM-US-00123) [Peptide No. 279]", 8.15],
  ["RF[Pen]TGHFG[Sar][NMeL]YPCG (disulfide 3-13; also: dimer: C-termini joined through a branching Lys, C-terminally linked dimer; drawing CHEM-US-00131) [Peptide No. 287]", 7.70],
  ["QRF[Pen]TGHFGGLYPCNGP-NH2 (disulfide 4-14; also: N-terminally linked homodimer via ethylene glycol-bis(succinic acid) linker, N-terminally linked dimer) [Peptide No. 201]", 7.59],
  ["RF[Pen]TGHFG[Sar][NMeL]YPCGG (disulfide 3-13; also: dimer: C-termini joined through a branching Lys, C-terminally linked dimer; drawing CHEM-US-00132) [Peptide No. 288]", 7.80]
]}
